assay: Cytotoxicity against human HCT116 cells after 72 hrs by cell counting Kit-8 assay; type: functional, cell-based; settings: HCT-116, 72 h
quantity: IC50 (µM)
Kindly answer with a numeric value in µM, unit omitted.

Data point: CC(=O)O[C@H]1C(=O)[C@@]2(C)[C@H]([C@H](OC(=O)c3ccccc3)[C@]3(O)C[C@H](OC(=O)[C@H](O)[C@@H](NC(=O)c4ccccc4)c4ccccc4)C(C)=C1C3(C)C)[C@]1(OC(C)=O)CO[C@@H]1C[C@@H]2O [PACLITAXEL] ; IC50 = 0.0027

// field: IC50; key: C[C@]1(O)Cc2c(O)c3c(c(O)c2[C@@H](O)C1)C(=O)C=C(NCCc1ccc(Cl)cc1)C3=O ; value = 10.1

Entry COc1cccc2c1C(=O)c1c(O)c3c(c(O)c1C2=O)C[C@@](O)(C(=O)CO)C[C@@H]3O[C@H]1C[C@H](N)[C@H](O)[C@H](C)O1 [DOXORUBICIN] — recorded IC50 = 0.0199

IC50 recorded for this compound, C[C@]1(O)Cc2c(O)c3c(c(O)c2[C@@H](O)C1)C(=O)C=C(NCCc1ccccc1)C3=O , is 16

For COC1=CC(=O)c2c(O)c3c(c(O)c2C1=O)C[C@@](C)(O)C[C@@H]3O the compound record lists IC50 as 23.7

Sure, the documented IC50 for COC1=CC(=O)c2c(O)c3c(c(O)c2C1=O)C[C@](C)(O)CC3 is 26.8

GET /value?item= COC1=CC(=O)c2c(O)c3c(c(O)c2C1=O)C[C@](C)(O)C[C@@H]3O &field=IC50 returns 3.7

Taken from ChEMBL document CHEMBL3351762.
